- tgt: Inadl_8, Q8NI35
- Sequence (Q8NI35 1425-1530): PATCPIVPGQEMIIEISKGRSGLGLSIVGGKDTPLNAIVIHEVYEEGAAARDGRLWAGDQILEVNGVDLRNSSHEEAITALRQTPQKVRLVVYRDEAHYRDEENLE
- procedureText: holdup assay
- Design: key: below the threshold = too weak to quantify, mostly under pKd 3.1 to 4
- measurementParameters: plain residues with an end cap or a label only (N-terminal biotin on a linker: ahx)
outcomeMeasure: pKd

[
  {
    "binder": "PSASCAVTAA [PDLIM4, P50479;P50479-2]",
    "reportedResult": "below the threshold"
  },
  {
    "binder": "LSDPSVSTVV [GRIN1, Q05586;Q05586-2]",
    "reportedResult": "below the threshold"
  },
  {
    "binder": "SDSSGQEYSL [KCTD3, Q9Y597]",
    "reportedResult": "below the threshold"
  },
  {
    "binder": "RRRKRKRTYL [HPV49-L2, P36762]",
    "reportedResult": 4.11
  },
  {
    "binder": "RAVEEEESRF [PSCDBP, O60759]",
    "reportedResult": "below the threshold"
  },
  {
    "binder": "NRKREIFSNF [NHERF2, Q15599]",
    "reportedResult": "below the threshold"
  }
]
